B1: Hairpin Ribozyme (parent)
chain: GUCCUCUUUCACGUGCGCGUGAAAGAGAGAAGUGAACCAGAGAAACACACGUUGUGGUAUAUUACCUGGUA

# Variants of: B1
# methodSummary: self-cleavage, relative activity (ratio to wild type); higher = more cleavage; co-transcriptional
Classify by measured self-cleavage: Met if it is equal to or exceeds 0.2, Not met if it is smaller.

Solved cases below.
# residueSequence, cat
records = [
    ("GUCCUCUUUCACGUGCGCGUGAAAGAGAGUAGGGAACCAGAGAAACACACGUUGUGGUAUAUUACCUGGUA [A30U U33G]", "Not met"),
    ("GUCCUCGUUCACGUGCGCGUGAAAGAUAGAAGUGAACCAGAGAAACACACGUUGUGGUAUAUUACCUGGUA [U7G G27U]", "Met"),
    ("GUCCUCUUUCACGUGCGCGUGAAAGAGAGAAGUGAACCAGAGAAACACACGUUGUGGUAUAUUCCCGGGUA [A64C U67G]", "Not met"),
    ("GUCCUCUUUCACGUGCGCGUGAAAGAGGGAAGUGAACCAGAGAAACACACGUUGUGGUAUAUUACCUGGUU [A28G A71U]", "Met"),
    ("GUCCUCUUUCACGUGCGCGUGAAAGAGAGAAAUGAACCAGAGAAACACUCGUUGUGGUAUAUUACCUGGUA [G32A A49U]", "Not met"),
    ("GUCCUCUUUCACGUGCGCGUGAAAGAGAGAAGUGAACCAGAGAAACACACGUUGUGGUAUAUUUCCUGGAA [A64U U70A]", "Met"),
]

Incoming: Quick check, self-cleavage >= 0.2? GUCCGCUUUCACGUGCGCGUGAGAGAGAGAAGUGAACCAGAGAAACACACGUUGUGGUAUAUUACCUGGUA [U5G A23G]
Outgoing: Met

Incoming: Quick check, self-cleavage >= 0.2? GUCCUCUUUCACGUGCGCGUGAAAGAGAGAAGUGAACCAGAGAAACGCACGUUGUGAUAUAUUACCUGGUA [A47G G57A]
Outgoing: Not met

Incoming: Quick check, self-cleavage >= 0.2? GUCCUCUUUCACGUGCGCGUGAAAGAGAGAAGUGAACCAGAGAAACACACGUUAUGGUAUAUUACCUGAUA [G54A G69A]
Outgoing: Not met

Incoming: Quick check, self-cleavage >= 0.2? GUCCUCUUUCUCCUGCGCGUGAAAGAGAGAAGUGAACCAGAGAAACACACGUUGUGGUAUAUUACCUGGUA [A11U G13C]
Outgoing: Met

Incoming: Quick check, self-cleavage >= 0.2? GUCCUCUUUCCCGUGCGCGUGAAAGAGAGAAGUGAACCAGAGAAACACACGUUGUGGUAUAUUACCUGGUG [A11C A71G]
Outgoing: Met
